assayExplanation: Pharmacokinetics of deuterated and non-deuterated D-serine, PO 10 mg/kg (Example 5)
Type: in vivo, male Sprague Dawley rats
experimentalConditions: male, Sprague Dawley, rat, plasma, 0.5% Methylcellulose
endpointLabel: half-life (h)

> print(dat)
                                   compound  measurement
1  N[C@H](CO)C(=O)O [Non-deuterated D-Serine, D-serine]         1.77
2     [2H][C@@](N)(CO)C(=O)O [Compound 100]         2.66

* * *

assayExplanation: Pharmacokinetics dose response of non-deuterated D-serine, 30-300 mg/kg PO (Example 4)
Type: in vivo, male Sprague-Dawley rats
experimentalConditions: male, Sprague-Dawley, rat, plasma, po, 150 mg/kg, 150 mg/kg PO
Excerpt: The pharmacokinetic profile of non-deuterated D-serine was investigated in male Sprague-Dawley rats. […] Plasma was collected and analyzed for the non-deuterated D-serine. Additional blood was collected and analyzed for the full clinical chemistry profile.
endpointLabel: Tmax (min)

> print(dat)
   chemicalstructure  endpointlabel  unitofmeasurement  measurement
1   N[C@H](CO)C(=O)O           Tmax                min           18
